# Tested on: SNB-75 CNS
# TEST DETAILS: NCI-60 one-dose screen, 48 h (100 = growth as untreated, 0 = no growth, -100 = all killed)
# CONDITION LABEL: 10 µM unless noted
Compounds without any hit were thinned out: in the full panel of roughly 83,000, 20% have a hit. Active and inactive are the calls of the source. The calls were made as follows: active = growth percent below 10; inactive = the rest.
MEASUREMENT KIND: growth

Recorded growth, per entry:
CC[C@@H]1C(=O)N(C)c2cnc(Nc3ccc(C(=O)NC4CCC(N5CCN(CC6CC6)CC5)CC4)cc3OC)nc2N1C(C)C (some centres undefined): -8.67% (active)
CNC(=O)c1ccccc1Nc1nc(Nc2ccc3c(c2OC)CCC[C@H](N2CCN(CCO)CC2)C3)ncc1Cl: -5.43% (active)
N#CC[C@H](C1CCCC1)n1cc(-c2ncnc3[nH]ccc23)cn1: 33.8% (inactive)
CC(CCCC(=O)O)c1ccoc1 (centres undefined): 92.6% (inactive)
NC(=O)Nc1cc(-c2cccc(F)c2)sc1C(=O)N[C@H]1CCCNC1: -89.8% (active)

Exam item: growth lookup needed for `C=CC(=O)Nc1cc2c(Nc3ccc(F)c(Cl)c3)ncnc2cc1OCCCN1CCOCC1` , thanks.
Marked response: -15.9% (active)

Exam item: Can you look up the measured growth of `CN1CCC(COc2cnc(-c3cccc(Cn4nc(-c5cccc(C#N)c5)ccc4=O)c3)nc2)CC1` for me?
Marked response: 72.9% (inactive)

Exam item: Using the record for `O=c1[nH]ccc2c(S(=O)(=O)N3CCCNCC3)cccc12` , report its growth.
Marked response: 54.6% (inactive)

Exam item: Requested read-out: growth. Entry: CCCC(=O)OCC1OC(n2cnc3c(=S)nc[nH]c32)C(OC(=O)CCC)C1OC(=O)CCC (centres undefined)
Marked response: 52.9% (inactive)

---

# Test system: K-562 leukemia
# TEST DETAILS: NCI-60 one-dose screen, 48 h
# CONDITION LABEL: 10 µM unless noted
About 83,000 compounds went through this panel and 20% of them were active in at least one assay; those are over-represented in the sample as a whole. The source made the active and inactive calls. The calls were made as follows: active = growth percent below 10; inactive = the rest.
Permitted responses: 1 (yes) = active, 0 (no) = inactive

CO[C@H]1C[C@@H]2CC[C@@H](C)[C@@](O)(O2)C(=O)C(=O)N2CCCC[C@H]2C(=O)O[C@H]([C@H](C)C[C@@H]2CC[C@@H](OC(=O)C(C)(CO)CO)[C@H](OC)C2)CC(=O)[C@H](C)/C=C(\C)[C@@H](O)[C@@H](OC)C(=O)[C@H](C)C[C@H](C)\C=C/C=C/C=C/1C: 0 (no)
O=C1C=CC2(NN=C(c3ccccc3)N2c2ccccc2)c2cccc(O)c21 (configuration not stated): 0 (no)
Fc1ccc(NCc2cn(-c3ccccc3)nc2-c2ccc(OCc3ccccc3)cc2)cc1Cl: 0 (no)

Exam item: Hi team, can someone confirm the assay call for `COC(=O)CCCNc1c(-c2c(O)c(O)cc3c(O)c(-c4c(C)cc5c(-c6nc7ccccn7c6NCCCC(=O)OC)c(O)c(O)cc5c4O)c(C)cc23)nc2ccccn12` ?
Marked response: 0 (no)

Exam item: State the result this test recorded for O=C(O)C1(Cc2cccc(Nc3nccs3)n2)CCC(Oc2cccc(Cl)c2F)CC1 (configuration not stated) .
Marked response: 0 (no)

Exam item: State the result this test recorded for `COc1ccc(F)c(F)c1C(=O)c1cnc(NC2CCN(S(C)(=O)=O)CC2)nc1N` .
Marked response: 1 (yes)

Exam item: Tell me the assay call for `COc1ccc(CCCc2c3[n+](cc4c(OC)c(OC)ccc24)CCc2cc4c(cc2-3)OCO4)cc1` please.
Marked response: 0 (no)

Exam item: Hey, what did the test say about `Cn1ccnc1C(=O)/C=C/c1ccc(CC(=O)Nc2ccc(C(F)(F)F)cc2)cc1` ?
Marked response: 1 (yes)

Exam item: Each compound tested received a call. Report the one for COC(=O)C1CCc2sc3ncnc(Nc4cn[nH]c4C(=O)Nc4ccc(CN5CCN(C)CC5)cc4)c3c21 (configuration not stated) .
Marked response: 1 (yes)

Exam item: Called result for `COc1cc(NCCN(CC(C)C)CC(C)C)c2ncc(C)cc2c1`
Marked response: 0 (no)

Exam item: What did the test return for `Nc1nc(N)c2nc(-c3cccc(O)c3)c(-c3cccc(O)c3)nc2n1` ?
Marked response: 0 (no)

---

# Tested on: NCI-H226 lung
# TEST DETAILS: NCI-60 one-dose screen, 48 h (100 = growth as untreated, 0 = no growth, -100 = all killed)
# CONDITION LABEL: 10 µM unless noted
About 83,000 compounds went through this panel and 20% of them were active in at least one assay; those are over-represented in the sample as a whole. Calls of active or inactive are those of the source. How the source made its calls: active means growth percent below 10; inactive means the rest.
MEASUREMENT KIND: growth

Examples with answers:
COc1ccc(C(=O)c2cc(OC)c(OC)c(OC)c2)cc1/C=C/C(=O)c1ccc(F)cc1: 90.4% (inactive)
CCc1cc2c(c3ccc(C(=O)CBr)cc13)CCCC2: 92.2% (inactive)
CN1CCC(COc2cnc(-c3cccc(Cn4nc(-c5cccc(C#N)c5)ccc4=O)c3)nc2)CC1: 92.2% (inactive)
O=C(Nc1cnn2ccc(N3CCC[C@@H]3c3cc(F)ccc3F)nc12)N1CC[C@H](O)C1: 93.8% (inactive)
c1cc(OCCN2CCCCC2)cc(-c2n[nH]c3ccc(-c4ncn[nH]4)cc23)c1: 61.6% (inactive)

# ---- query compound ----
Exam item: Give recorded growth with NCI-H226 lung for the following compound: COc1ccc(C2CC(=O)c3c(O)c(OC)c(OC)c(OC)c3O2)c(O)c1 (stereo unspecified)
Marked response: 66.8% (inactive)

---

# Tested on: UO-31 renal
# TEST DETAILS: NCI-60 one-dose screen, 48 h (100 = growth as untreated, 0 = no growth, -100 = all killed)
# CONDITION LABEL: 10 µM unless noted
The panel holds about 83,000 compounds, 20% with a hit somewhere; the sample as a whole holds those more often.
Outcome label depends on growth relative to 50%: at/above gives TRUE, below gives FALSE.

Please review the following examples before continuing.
O=C1NC(=O)[C@@H](c2cn3c4c(cccc24)CCC3)[C@@H]1c1c[nH]c2ccccc12: FALSE
CC(C)=CCc1cc2c(cc1O)C1=C(C(=O)C3=C(C1=O)S(=O)(=O)CCN3)C(C=C(C)C)O2 (configuration not stated): FALSE
Cc1cc(Nc2ncc(Cl)c(Nc3ccccc3S(=O)(=O)C(C)C)n2)c(OC(C)C)cc1C1CCNCC1: FALSE

Exam item: Has `Cc1ccc(N=C2CSc3nnc(-c4csc5c4CCCC5)n3N2)cc1` a recorded growth greater than or equal to 50%?
Marked response: TRUE

Exam item: Reported growth reaches at least 50% for `CNC(=O)c1cccc2cc(Oc3ccnc4cc(OCC5(N)CC5)c(OC)cc34)ccc12` ?
Marked response: FALSE

---

# Test system: OVCAR-3 ovarian
# TEST DETAILS: NCI-60 one-dose screen, 48 h
# CONDITION LABEL: 10 µM unless noted
This is part of a sample that, as a whole, favours compounds with a hit. Of some 83,000 tested, about 20% had one in any assay. Calls of active or inactive are those of the source. Rule for the calls: active = growth percent below 10; inactive = the rest.
Please answer using one outcome listed in True = active, False = inactive

C=C1C(=O)O[C@H]2[C@H]1CC/C(Cn1cc(-c3cc(C)c(C)cc3C)nn1)=C\CC[C@@]1(C)O[C@@H]21: True
COC[C@@H](C)n1c(C2CCOCC2)nc2c1C1C=C(OC)C(c3c(C)noc3C)=CC1N=C2 (stereo partly drawn): False

Next:
Exam item: Recorded test call requested for `Cn1c(Nc2ccc(C(F)(F)F)cc2)nc2cc(Oc3ccnc(-c4ncc(C(F)(F)F)[nH]4)c3)ccc21`
Marked response: False

---

# Test system: T-47D breast
# TEST DETAILS: NCI-60 one-dose screen, 48 h (100 = growth as untreated, 0 = no growth, -100 = all killed)
# CONDITION LABEL: 10 µM unless noted
The panel holds about 83,000 compounds, 20% with a hit somewhere; the sample as a whole holds those more often.
In plain terms, low growth, meaning strictly below 30%, gives label 1, and everything else gives label 0.

CCCCCCC1(/C=N/NC(N)=O)NC(=O)NC1=O (stereo not drawn): label 0

Proceed to the following item.
Exam item: Input `N[C@@H]1CCCN(c2c(/C=C3\SC(=O)NC3=O)cccc2-c2ccccc2)C1` ; condition: growth strictly below 30%. Does it hold?
Marked response: label 1

---

# System: IGROV1 ovarian
# TEST DETAILS: NCI-60 one-dose screen, 48 h (100 = growth as untreated, 0 = no growth, -100 = all killed)
# CONDITION LABEL: 10 µM unless noted
The panel holds about 83,000 compounds, 20% with a hit somewhere; the sample as a whole holds those more often. Calls of active or inactive are those of the source. The calls were made as follows: active = growth percent below 10; inactive = the rest.
MEASUREMENT KIND: growth

Reference set, count: 6
Cc1cc(NCC(=O)Nc2ccc(-c3nc4ccccc4s3)cc2)no1: 88.5% (inactive)
Cc1cc(Nc2cc(N3CCN(C)CC3)nc(/C=C/c3ccccc3)n2)n[nH]1: -30.7% (active)
CNC(=O)c1nn(C)c2c1C(C)(C)Cc1cnc(Nc3ccc(N4CCN(C)CC4)cc3)nc1-2: 2.47% (active)
C[N+](C)(CCOC(c1ccccc1)c1ccccc1)CC(=O)OCc1ccccc1: 106% (inactive)
c1cc[n+](Cc2c3ccccc3cc3c2ccc2ccccc23)cc1: 13.7% (inactive)
CCCCCCCCCCCC[n+]1ccccc1: -37.5% (active)

Exam item: Please give the measured growth for this compound: `COc1cc2nccc(Oc3ccc(NC(=O)C4(C(=O)Nc5ccc(F)cc5)CC4)cc3)c2cc1OC`
Marked response: -15.9% (active)
